- MOLECULE: "COc1ccc2c(c1)CCC1C2CCC2(C)C(NCc3ccccc3)CCC12 (stereo not given)"
  melting point: "102 to 104 °C"
- MOLECULE: "C=C1CSc2sccc2C1=O"
  melting point: "64 to 65 °C"
- MOLECULE: "Oc1cc2cc(C3CCCCC3)sc2c(Cl)c1Cl"
  melting point: "59 to 60 °C"
- MOLECULE: "CC(=O)Nc1cc2c(cc1[N+](=O)[O-])OC(C)(C)O2"
  melting point: "173 to 174 °C"
- MOLECULE: "CC(C)Sc1nc(-n2ccnc2)c(I)c(C(F)(F)F)n1"
  melting point: "118 to 120 °C"
- MOLECULE: "C=CCNC(=O)Nc1ccccc1CCc1cc(C(C)(C)C)c(O)c(C(C)(C)C)c1"
  melting point: "169 to 172 °C"
- MOLECULE: "CCOC(=O)c1ncc2[nH]c3cccc(CO)c3c2c1COC"
  melting point: "139 to 140 °C"
- MOLECULE: "CCOC(=O)C1CCCCCCCC(=O)N1 (stereo not given)"
  melting point: "101 to 103 °C"
- MOLECULE: "COc1ccc(S(=O)(=O)N2C(=O)C(c3ccccc3OC)(N3C[C@H](OCC(=O)NC(C)(CO)CO)C[C@H]3C(=O)N(C)C)c3cc(Cl)ccc32)c(OC)c1 (stereo not given in full)"
  melting point: "154 °C"
- MOLECULE: "CC12CCC3C(CC=C4CC(C(=O)CBr)CCC43C)C1CCC2=O (stereo not given)"
  melting point: "150 °C"

* * *

PARAMETER MEASURED: melting point

- MOLECULE: "COc1ccccc1OCC1NC(C(=O)O)CS1 (centres undefined)"
  VALUE: "149 to 150 °C"
- MOLECULE: "CS(=O)(=O)c1ccc(-c2[nH]nc(C(=O)CCCO[N+](=O)[O-])c2C2CCCCC2)cc1"
  VALUE: "122 to 124 °C"
- MOLECULE: "COC(=O)CCC(CCCCNS(=O)(=O)c1ccc(Cl)cc1)CCOc1cccnc1 (centres undefined)"
  VALUE: "57 to 58 °C"
- MOLECULE: "CCCCCS(=O)(=O)NC(=O)/C=C/c1ccc(OCCO[Si](c2ccccc2)(c2ccccc2)C(C)(C)C)cc1Oc1ncc(C(F)(F)F)cc1Cl"
  VALUE: "108 °C"
- MOLECULE: "Cc1cccc(-c2nc3c(o2)C(=O)c2ccccc2C3=O)c1"
  VALUE: "255 °C"
- MOLECULE: "Cn1c2c(c3cc(Cl)ccc31)CCC(C(=O)O)C2 (centres undefined)"
  VALUE: "259 to 260 °C"
- MOLECULE: "CC(C)C[C@H](NC(=O)OCc1ccccc1)C(=O)N[C@@H](Cc1ccccc1)C(=O)CSCc1ccccc1"
  VALUE: "86 to 87 °C"
- MOLECULE: "CC(C)(C)OC(=O)CN1CC(c2ccc3ccccc3c2)SCC(N2C(=O)c3ccccc3C2=O)C1=O (centres undefined)"
  VALUE: "208 to 210 °C"
- MOLECULE: "CCN1c2ncc(CCc3ccncc3)cc2C(=O)Nc2c(C)ccnc21"
  VALUE: "176 to 178 °C"
- MOLECULE: "O=C(Nc1cc(C(F)(F)F)ccc1N1CCc2ccccc21)c1ccccc1"
  VALUE: "114 to 119 °C"
- MOLECULE: "N#Cc1nn(-c2c(Cl)cc(C(F)(F)F)cc2Cl)c(F)c1S(=O)(=O)C(F)(F)F"
  VALUE: "95 to 98 °C"
- MOLECULE: "O=CC(O)C(O)C(CO)OC1OC(CO)C(O)C(O)C1O (centres undefined)"
  VALUE: "171 to 176 °C"
- MOLECULE: "Cc1cc(C(F)(F)F)nn1CC(=O)N1CCC(c2nc(C3=NOC(c4ccccc4Cl)C3)cs2)CC1 (centres undefined)"
  VALUE: "115 to 122 °C"
- MOLECULE: "NCc1cc(-c2csc(N=C(N)N)n2)ccn1"
  VALUE: "> 210 °C"
- MOLECULE: "Cc1nc(C)c2c(n1)N(Cc1ccc(-c3ccccc3-c3nnn[nH]3)cc1)C(=O)C(O)C2 (centres undefined)"
  VALUE: "154 to 156 °C"
- MOLECULE: "CC(=O)/C=C(\\C)c1ccc(-c2ccccc2)c(F)c1"
  VALUE: "103 °C"
- MOLECULE: "ClC1c2ccccc2C=Cc2ccc(Br)cc21 (centres undefined)"
  VALUE: "146 °C"
- MOLECULE: "N#Cc1cnc2cc(Br)ccc2c1Nc1ccc(Oc2ccccc2)cc1"
  VALUE: "205 to 207 °C"
- MOLECULE: "CC(=O)Nc1ccc(O[C@H]2CCN(C)C[C@H]2c2ccccc2)cc1 (relative stereo)"
  VALUE: "174 to 176 °C"
- MOLECULE: "O=C(O)CCNC(=O)[C@H](Cc1ccc(-c2ccccc2)cc1)NCP(=O)(Oc1ccccc1)Oc1ccccc1"
  VALUE: "102 °C"
- MOLECULE: "CCC(C)(C)c1ccc(S(=O)(=O)N2C(=O)C(NCCN3CCOCC3)(c3ccccc3Cl)c3cc(Cl)ccc32)cc1 (centres undefined)"
  VALUE: "147 °C"
- MOLECULE: "CCOCc1nc2c(N)nc3cc(-c4cccc(C(=O)O)c4)ccc3c2n1CC(C)(C)O"
  VALUE: "> 250 °C"
- MOLECULE: "CCCCC1(CCCC)CS(=O)(=O)c2ccc(N(C)C)cc2C(c2ccc(OCC(=O)NCC(=O)O)cc2)C1O (centres undefined)"
  VALUE: "149 to 150 °C"
- MOLECULE: "Cc1cc(N)ccc1NC(=O)c1ccc(N)cc1"
  VALUE: "111 to 115 °C"
- MOLECULE: "Nc1ccc(S(=O)(=O)NCCc2ccccc2)cc1"
  VALUE: "114 °C"
- MOLECULE: "CSc1nc(=O)n(Cc2ccccc2)c2nc[nH]c12"
  VALUE: "215 to 216 °C"
- MOLECULE: "CCOC1=NS(=O)(=O)c2ccc(N)cc21"
  VALUE: "154 to 156 °C"
- MOLECULE: "CCOC(=O)C=Cc1cncc(OCc2ccccc2)c1"
  VALUE: "76 to 77 °C"
- MOLECULE: "CN1CCN(c2ccc(O)c3c2C[C@H](N)CC3)CC1"
  VALUE: "238 to 239 °C"
- MOLECULE: "CS(=O)(=O)c1ccc(-n2cc(-c3cccc(Cl)c3)nc2-c2ccc(Cl)cc2)cc1"
  VALUE: "156 to 159 °C"
- MOLECULE: "COc1cc(C(=O)CSCC2CCCCC2)c(OC)cc1Cl"
  VALUE: "51 to 53 °C"
- MOLECULE: "O=C(O)c1cccn2cc(-c3ccccc3)nc12"
  VALUE: "226 °C"
- MOLECULE: "Cc1ccccc1C(=O)Nc1ccc(-n2nc(C(F)(F)F)cc2C2CC2)c(F)c1"
  VALUE: "142 to 144 °C"
- MOLECULE: "C=CCOc1ccc(C(=O)O)cc1"
  VALUE: "163 to 164 °C"
- MOLECULE: "O=C(O)c1cccc(CN2C(=O)C3(COc4cc5c(cc43)CCO5)c3ccccc32)c1 (centres undefined)"
  VALUE: "> 250 °C"
- MOLECULE: "CC(C)(C)C(=O)c1ccc(C(N)=O)cc1"
  VALUE: "138 to 140 °C"
- MOLECULE: "N#Cc1ccc(N=C=O)cc1Cl"
  VALUE: "198 to 201 °C"
- MOLECULE: "CCCCNc1cccnc1S(N)(=O)=O"
  VALUE: "100 to 101 °C"
- MOLECULE: "c1ccc(-c2cccc(N(c3ccccc3)c3ccc4c(c3)Oc3ccc(N(c5ccccc5)c5cccc(-c6ccccc6)c5)cc3O4)c2)cc1"
  VALUE: "232 °C"

* * *

Parameter melting point: see the listing below.
PARAMETER MEASURED: melting point

- MOLECULE: "CC(=O)N(N=Nc1cc(C(F)(F)F)ccc1C#N)c1cc(C(F)(F)F)ccc1C#N"
  VALUE: "111 to 112 °C"
- MOLECULE: "CC(C)(C)OC(=O)Nc1nc2cc(NC(=O)C(=O)N3CCC(Cc4ccccc4)CC3)ccc2[nH]1"
  VALUE: "192 °C"
- MOLECULE: "Cc1cc([N+](=O)[O-])c(NC(C)C(=O)O)c([N+](=O)[O-])c1 (stereo not given)"
  VALUE: "158 to 161 °C"
- MOLECULE: "CC(=O)Nc1c(Cl)cnn(C)c1=O"
  VALUE: "147 to 148 °C"
- MOLECULE: "CCN(CC)C(=O)c1ccc2ccccc2c1-c1cccc(OC)c1"
  VALUE: "91 to 93 °C"
